biological target: EPHB2 (UniProt P29323); assay: phosphorylation enrichment, bacterial display (enrichment ratio); higher = better substrate or ligand; peptides without Tyr show the background;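 also: 11-residue human phosphosite peptides and single-mutation variants displayed on the E. coli surface, counted by deep sequencing, each peptide's frequency after selection divided by its frequency in the unselected input library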;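 also: frequency after pTyr selection over input frequency; kinase dosed for 20-30% of maximal phosphorylation in three min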
Sequence (P29323 whole entry, looked up): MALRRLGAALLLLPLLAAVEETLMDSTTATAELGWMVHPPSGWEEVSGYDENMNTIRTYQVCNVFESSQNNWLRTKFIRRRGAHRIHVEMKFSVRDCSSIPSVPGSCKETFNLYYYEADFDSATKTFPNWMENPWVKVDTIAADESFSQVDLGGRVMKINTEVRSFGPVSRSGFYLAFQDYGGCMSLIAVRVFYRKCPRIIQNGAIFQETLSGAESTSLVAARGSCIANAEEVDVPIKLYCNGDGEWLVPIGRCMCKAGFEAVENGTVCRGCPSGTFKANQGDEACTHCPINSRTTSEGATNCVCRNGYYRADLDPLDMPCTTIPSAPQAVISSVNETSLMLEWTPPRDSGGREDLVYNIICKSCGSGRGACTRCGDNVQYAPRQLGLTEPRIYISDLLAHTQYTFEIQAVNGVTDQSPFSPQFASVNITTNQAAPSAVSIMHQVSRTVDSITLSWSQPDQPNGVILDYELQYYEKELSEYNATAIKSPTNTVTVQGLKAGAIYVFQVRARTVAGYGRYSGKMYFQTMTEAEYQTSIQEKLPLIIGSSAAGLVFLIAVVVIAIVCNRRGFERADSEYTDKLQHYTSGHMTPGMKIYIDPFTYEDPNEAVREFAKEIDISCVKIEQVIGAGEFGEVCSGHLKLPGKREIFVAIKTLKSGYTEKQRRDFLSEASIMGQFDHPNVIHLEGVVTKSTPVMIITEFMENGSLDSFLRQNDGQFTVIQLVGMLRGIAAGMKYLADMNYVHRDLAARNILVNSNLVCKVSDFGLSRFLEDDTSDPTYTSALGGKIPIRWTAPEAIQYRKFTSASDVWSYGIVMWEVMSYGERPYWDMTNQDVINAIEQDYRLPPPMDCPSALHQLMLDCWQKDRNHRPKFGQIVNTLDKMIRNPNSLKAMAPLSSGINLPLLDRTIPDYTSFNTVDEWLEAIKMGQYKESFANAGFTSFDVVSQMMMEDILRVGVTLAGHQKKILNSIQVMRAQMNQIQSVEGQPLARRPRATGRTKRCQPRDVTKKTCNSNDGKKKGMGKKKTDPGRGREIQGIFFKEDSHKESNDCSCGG
MEASURED ENDPOINT: phosphorylation enrichment
Lab note: jot the number down without any unit.

I would be grateful if you could share the reported phosphorylation enrichment for LENQTYFKSFE [AKAP9_Y2482] .
1.24

So what does the record say about phosphorylation enrichment for SFLSFYTSHVQ [NEFL_Y443_P440L_YF] ?
0.697

phosphorylation enrichment for GRDVIYKGFED [NFU1_Y194_G190R] ?
0.401

Give the measured phosphorylation enrichment of FGPPQYNMQFS [ERBB2IP_Y977_I979M_YF] .
0.427

Need phosphorylation enrichment of NTYENYWPFYQ [GATM_Y103_K102N] , thanks.
22.2

Item under review: AAVDNYCRHNY [HLA-DRB1_Y107_T106N] . Reported phosphorylation enrichment?
0.669

Could you tell me which phosphorylation enrichment is on file for PVEAAYQKVVA [HBB_Y131_Q128E] ?
0.401

Reported phosphorylation enrichment, sequence NTILLYHIMAW [GPR143_Y157_S152N] : ____
3.9

For the sequence QRASDYYSQQM [GBP6_Y333_A331S] , what phosphorylation enrichment is on record?
0.589

Name the recorded phosphorylation enrichment for QFPDIYAREEV [CRX_Y67_V66I_YF] .
1.21

Name the reported phosphorylation enrichment value associated with the sequence ERMKVYVPIGF [EPHX1_Y393_T396I]
0.497

For the sequence FDAHNYHPLPV [OAT_Y55_G51D_YF] , what phosphorylation enrichment is on record?
0.762

For AKLDEYIAIAK [RCOR3_Y46] , what is its reported phosphorylation enrichment?
0.565

# get_value(readout='phosphorylation enrichment', item= FKTPTYPFLLP [PLD2_Y578_YF] )
0.422

Need phosphorylation enrichment, item VVLVSYVPSSQ [SH2B1_Y624]
0.454

Recorded phosphorylation enrichment for MCITQYKRESQ [PRNP_Y218_E219K] , please?
0.587

Can you share its phosphorylation enrichment? I mean this sequence: ATCKAYGQALA [TKT_Y321_R318C]
0.446

What does the record list as phosphorylation enrichment for PGIRMYQVQYN [LRFN1_Y454] ?
0.92

Sample IGEGTSGVVYK [CDK2_Y15_Y15S] — what was its phosphorylation enrichment?
0.319

Name the reported phosphorylation enrichment value associated with the sequence FSEVRYMKEPF [HIPK4_Y170_V171M_YF]
0.459

Look up phosphorylation enrichment for this sequence: SHISGYAALRR [RAPH1_Y1226_T1228A]
0.476

Item under review: AAVNGYVFGGG [ECHS1_Y137_A138V] . Reported phosphorylation enrichment?
0.398

Recorded phosphorylation enrichment for AESPEHVHMYT [FAM111A_Y511_Y511H] , please?
0.474

What measured phosphorylation enrichment goes with ARRMEYLASQK [FGFR2_Y616_G613R] ?
0.558

Which value of phosphorylation enrichment has been reported for YFCRWYRNQKS [EREG_Y144_R147Q] in the records?
0.385

Can you look up the measured phosphorylation enrichment of GHLYANDWISI [BEST1_Y227_Y227N] for me?
0.619

Return reported phosphorylation enrichment; argument: KKKKQYKGKYL [CASK_Y708_D710G]
0.54

What measured phosphorylation enrichment goes with VYYYSYLLKNH [PTEN_Y180] ?
1.07
